- Test system: SW620 cells
- ASSAY_NOTES: Cell proliferation assay (CellTiter-Glo), SW620
- Format: cell-based
- CONDITION_PARAMETERS: Homo sapiens, 120 h, SW-620 (MSS), 5 days incubation
MEASURED_ATTRIBUTE: IC50

> print(dat)
                                smiles.code  measured.attribute     reading
1  CCc1c(N2CCN(C(=O)c3ncnc(C)c3O)CC2)c(=O)c2nn(C3=CCOCC3)cc2n1CC(=O)Nc1ccc(S(F)(F)(F)(F)F)cc1                IC50  > 25000 nM
2  CCc1c(N2CCN(C(=O)c3ncnc(C)c3O)CC2)c(=O)c2nn(C3=CCOCC3)nc2n1CC(=O)Nc1cc(F)c(C(F)(F)F)cc1F                IC50  > 25000 nM
3  CCc1c(N2CCN(C(=O)c3ncnc(C)c3O)CC2)c(=O)c2nn(C3=CCOCC3)nc2n1CC(=O)Nc1cc(Cl)c(C(F)(F)F)cc1C                IC50  > 25000 nM

###

- ASSAY_NOTES: Pharmacokinetic test in rats
- Type: in vivo
- CONDITION_PARAMETERS: rat; SD rats, male, oral gavage, 10 mg/kg, plasma; read-out: AUC0-i
MEASURED_ATTRIBUTE: AUC

> print(dat)
                                   compound        reading
1  CCc1c(N2CCN(C(=O)c3ncnc(C)c3O)CC2)c(=O)n2nc(C3=CCOCC3)nc2n1CC(=O)Nc1ccc(C(F)(F)F)cc1Cl [HRO761, reference compound]  63600 ng·h/mL

###

Listed here are molecules together with their documented AUC(0-inf).
- ASSAY_NOTES: Pharmacokinetic test in mice
- Format: in vivo
- CONDITION_PARAMETERS: mouse; CD-1 mice, male, oral gavage, 10 mg/kg, plasma
MEASURED_ATTRIBUTE: AUC(0-inf)

> print(dat)
                                smiles.code  measured.attribute        reading
1  CCc1c(N2CCN(C(=O)c3ncnc(C)c3O)CC2)c(=O)c2nn(C3=CCOCC3)nc2n1CC(=O)Nc1ccc(C(F)(F)F)cc1Cl          AUC(0-inf)  51500 ng·h/mL
2  CCc1c(N2CCN(C(=O)c3ncnc(C)c3O)CC2)c(=O)c2nn(C3=CCOCC3)nc2n1CC(=O)Nc1cc(F)c(Cl)cc1Cl          AUC(0-inf)  83400 ng·h/mL

###

- ASSAY_NOTES: Pharmacokinetic test in mice
- Format: in vivo
- CONDITION_PARAMETERS: mouse; CD-1 mice, male, oral gavage, 10 mg/kg, plasma; read-out: AUC0-i
MEASURED_ATTRIBUTE: AUC (ng·h/mL)

> print(dat)
                                   compound  reading
1  CCc1c(N2CCN(C(=O)c3ncnc(C)c3O)CC2)c(=O)n2nc(C3=CCOCC3)nc2n1CC(=O)Nc1ccc(C(F)(F)F)cc1Cl [HRO761, reference compound]    28300

###

Listed here are compounds together with their documented IC50.
- ASSAYED_TARGET: WRN enzyme (Homo sapiens)
- Construct: host or cells: eukaryotic cells (not further specified)
- Sequence (Q14191 whole entry): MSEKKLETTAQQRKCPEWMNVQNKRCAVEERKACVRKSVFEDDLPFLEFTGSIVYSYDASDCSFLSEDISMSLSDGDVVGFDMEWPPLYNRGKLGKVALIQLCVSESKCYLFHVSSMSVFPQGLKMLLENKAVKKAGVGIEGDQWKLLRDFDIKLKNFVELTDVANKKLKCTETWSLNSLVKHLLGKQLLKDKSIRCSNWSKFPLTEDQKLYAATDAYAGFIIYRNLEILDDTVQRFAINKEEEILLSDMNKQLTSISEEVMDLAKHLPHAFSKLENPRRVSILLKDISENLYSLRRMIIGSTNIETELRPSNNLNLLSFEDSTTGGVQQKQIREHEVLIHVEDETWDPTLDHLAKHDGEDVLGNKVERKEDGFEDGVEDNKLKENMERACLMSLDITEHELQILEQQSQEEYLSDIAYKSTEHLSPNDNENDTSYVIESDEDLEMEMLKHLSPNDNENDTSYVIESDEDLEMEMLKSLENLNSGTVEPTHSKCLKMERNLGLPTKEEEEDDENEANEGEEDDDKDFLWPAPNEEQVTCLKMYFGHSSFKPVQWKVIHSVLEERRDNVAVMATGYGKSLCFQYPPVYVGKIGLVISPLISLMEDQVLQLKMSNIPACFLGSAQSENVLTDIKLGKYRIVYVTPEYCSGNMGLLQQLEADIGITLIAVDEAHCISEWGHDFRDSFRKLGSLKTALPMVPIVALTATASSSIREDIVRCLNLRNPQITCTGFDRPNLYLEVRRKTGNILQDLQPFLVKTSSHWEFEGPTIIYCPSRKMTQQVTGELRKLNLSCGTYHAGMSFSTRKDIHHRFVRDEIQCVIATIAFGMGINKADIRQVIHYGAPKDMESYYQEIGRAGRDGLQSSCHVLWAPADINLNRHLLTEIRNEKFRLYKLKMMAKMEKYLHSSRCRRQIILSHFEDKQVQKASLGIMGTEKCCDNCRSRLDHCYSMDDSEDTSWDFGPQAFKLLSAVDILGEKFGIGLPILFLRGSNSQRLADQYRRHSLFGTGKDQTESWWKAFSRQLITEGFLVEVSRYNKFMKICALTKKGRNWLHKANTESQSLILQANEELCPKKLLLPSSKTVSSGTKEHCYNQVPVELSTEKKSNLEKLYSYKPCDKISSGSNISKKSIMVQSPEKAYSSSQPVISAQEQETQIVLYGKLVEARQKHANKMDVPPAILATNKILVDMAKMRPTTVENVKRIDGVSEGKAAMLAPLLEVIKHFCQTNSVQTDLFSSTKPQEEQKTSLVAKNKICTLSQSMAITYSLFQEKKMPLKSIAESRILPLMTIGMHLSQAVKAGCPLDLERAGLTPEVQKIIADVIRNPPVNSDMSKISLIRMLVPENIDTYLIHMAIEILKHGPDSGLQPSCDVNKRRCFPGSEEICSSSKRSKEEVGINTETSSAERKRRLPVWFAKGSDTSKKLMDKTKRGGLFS
- ASSAY_NOTES: biochemical
- CONDITION_PARAMETERS: read-out: WRN helicase activity (IC50 nM)
MEASURED_ATTRIBUTE: IC50

> print(dat)
                                   compound             assayed.target  reading
1  CCc1c(N2CCN(C(=O)c3ncnc(C)c3O)CC2)c(=O)c2nn(C3=CCOCC3)nc2n1CC(=O)Nc1ccc(C(F)(F)F)cc1F [Example 9]  WRN enzyme (Homo sapiens)  94.9 nM
2  CCc1c(N2CCN(C(=O)c3ncnc(C)c3O)CC2)c(=O)c2nn(C3=CCN(S(=O)(=O)C4CC4)CC3)cc2n1CC(=O)Nc1ccc(C(F)(F)F)cc1Cl [Example 11]  WRN enzyme (Homo sapiens)  65.3 nM
3  CCc1c(N2CCN(C(=O)c3ncnc(C)c3O)CC2)c(=O)c2nn(C3=CCOCC3)nc2n1CC(=O)Nc1ccc(S(F)(F)(F)(F)F)cc1 [Example 21]  WRN enzyme (Homo sapiens)  24.4 nM
